Measured Effects Green foxtail, listed per entry for reference.
system: green foxtail; test: Foliar spread test for upland field; type: in vivo, Setaria viridis; parameters: key: 0: normal development; 1: Less damaged; 2: Slightly damaged; 3: Moderately damaged; 4: Severely damaged; 5: All killed; conditions: foliar spray 500 ppm, 3 weeks, rank vs non-treated
Reported metric: Effects Green foxtail

INSERT INTO results (molecule, reading) VALUES
  ('CCCC(Oc1cccc(C(F)(F)F)c1)c1nc2cc(Cl)ccc2o1 (stereo not shown)', 2),
  ('CCCC(Oc1ccc(F)c(C(F)(F)F)c1)c1nc2cc(C(F)(F)F)ccc2o1 (stereo not shown)', 2),
  ('CCCC(Oc1cccc(C(F)(F)F)c1)c1nc2cc(C(F)(F)F)ccc2o1 (stereo not shown)', 5),
  ('CCC(Oc1cccc(C(F)(F)F)c1)c1nc2cc(F)c(Cl)cc2o1 (stereo not shown)', 4),
  ('CCC(Oc1ccc(F)c(C(F)(F)F)c1)c1nc2cc(OC)ccc2o1 (stereo not shown)', 5),
  ('CCCC(Oc1cccc(C(F)(F)F)c1)c1nc2cc(C#N)c(Cl)cc2o1 (stereo not shown)', 5),
  ('CCC(Oc1cccc(C(F)(F)F)c1)c1nc2cc(C#N)c(Cl)cc2o1 (stereo not shown)', 5),
  ('CCCC(Oc1ccc(F)c(C(F)(F)F)c1)c1nc2cc(F)c(Cl)cc2o1 (stereo not shown)', 3),
  ('CCC(Oc1cccc(C(F)(F)F)c1)c1nc2cc([N+](=O)[O-])ccc2o1 (stereo not shown)', 2),
  ('CCC(Oc1ccc(F)c(C(F)(F)F)c1)c1nc2cc(C#N)c(C#N)cc2o1 (stereo not shown)', 5),
  ('CCCC(Oc1cccc(C#N)c1)c1nc2cc(S(C)(=O)=O)c(C)cc2o1 (stereo not shown)', 2),
  ('CCC(Oc1cccc(C(F)(F)F)c1)c1nc2cc(C#N)ccc2o1 (stereo not shown)', 5),
  ('CCC(Oc1cccc(OC(F)(F)F)c1)c1nc2cc(C#N)c(C#N)cc2o1 (stereo not shown)', 5),
  ('CCC(Oc1cccc(C(F)(F)F)c1)c1nc2cc(F)c(C(F)(F)F)cc2o1 (stereo not shown)', 5),
  ('CCCC(Oc1cccc(C(F)(F)F)c1)c1nc2cc(C#N)ccc2o1 (stereo not shown)', 5),
  ('CCCC(Oc1cccc(C(F)(F)F)c1)c1nc2cc(F)c(C(F)(F)F)cc2o1 (stereo not shown)', 5),
  ('CCC(Oc1ccc(F)c(C(F)(F)F)c1)c1nc2cc(I)ccc2o1 (stereo not shown)', 5),
  ('CCC(Oc1cccc(C(F)(F)F)c1)c1nc2cc(Br)ccc2o1 (stereo not shown)', 3),
  ('CCC(Oc1cccc(C#N)c1)c1nc2cc(F)c(Cl)cc2o1 (stereo not shown)', 4),
  ('CCCC(Oc1cccc(C(F)(F)F)c1)c1nc2cc(C#N)c(C#N)cc2o1 (stereo not shown)', 5),
  ('CCC(Oc1ccc(Cl)c(C(F)(F)F)c1)c1nc2cc(Cl)ccc2o1 (stereo not shown)', 3),
  ('CCC(Oc1ccc(F)c(C(F)(F)F)c1)c1nc2cc(F)c(Cl)cc2o1 (stereo not shown)', 5),
  ('CCCC(Oc1cccc(C(F)(F)F)c1)c1nc2cc(F)c(Cl)cc2o1 (stereo not shown)', 4),
  ('CCC(Oc1cccc(S(C)(=O)=O)c1)c1nc2cc(S(C)(=O)=O)ccc2o1 (stereo not shown)', 5),
  ('CCC(Oc1cccc(C(F)(F)F)c1)c1nc2cc(F)ccc2o1 (stereo not shown)', 3),
  ('CCCC(Oc1ccc(F)c(C(F)(F)F)c1)c1nc2cc(C#N)c(Cl)cc2o1 (stereo not shown)', 4),
  ('CCC(Oc1cccc(OC(F)(F)F)c1)c1nc2cc([N+](=O)[O-])ccc2o1 (stereo not shown)', 3),
  ('CCC(Oc1ccc(F)c(C(F)(F)F)c1)c1nc2cc(Cl)ccc2o1 (stereo not shown)', 4),
  ('CCC(Oc1ccc(F)c(C(F)(F)F)c1)c1nc2cc(NC(=O)C(F)(F)F)ccc2o1 (stereo not shown)', 5),
  ('CCC(Oc1cccc(C(F)(F)F)c1)c1nc2cc(C#N)c(C#N)cc2o1 (stereo not shown)', 5),
  ('CCC(Oc1ccc(F)c(C(F)(F)F)c1)c1nc2ccc(C(F)(F)F)cc2o1 (stereo not shown)', 3),
  ('CCC(Oc1cccc(C#N)c1)c1nc2cc(S(C)(=O)=O)c(C)cc2o1 (stereo not shown)', 2),
  ('CCC(Oc1cccc(C(F)(F)F)c1)c1nc2cc(Cl)ccc2o1 (stereo not shown)', 2),
  ('CCCC(Oc1cccc(C#N)c1)c1nc2cc(Cl)ccc2o1 (stereo not shown)', 3);

---

tested on: corn; experiment: Foliar spread test for upland field; type: in vivo; set-up: key: 0: normal development; 1: Less damaged; 2: Slightly damaged; 3: Moderately damaged; 4: Severely damaged; 5: All killed; conditions: foliar spray 500 ppm, 3 weeks, rank vs non-treated
Measured Effects Corn, listed per entry for reference.
Reported metric: Effects Corn

INSERT INTO measurements (compound, reported_metric, reading) VALUES
  ('CCC(Oc1cccc(C(F)(F)F)c1)c1nc2cc(F)c(C(F)(F)F)cc2o1 (stereo not drawn)', 'Effects Corn', 2),
  ('CCC(Oc1ccc(F)c(C(F)(F)F)c1)c1nc2cc(Cl)c(C)cc2o1 (stereo not drawn)', 'Effects Corn', 2),
  ('CCCC(Oc1cccc(C(F)(F)F)c1)c1nc2cc(C#N)ccc2o1 (stereo not drawn)', 'Effects Corn', 2),
  ('CCC(Oc1ccc(F)c(C(F)(F)F)c1)c1nc2cc(C(F)(F)F)ccc2o1 (stereo not drawn)', 'Effects Corn', 4),
  ('CCCC(Oc1cccc(C#N)c1)c1nc2cc(S(C)(=O)=O)c(C)cc2o1 (stereo not drawn)', 'Effects Corn', 1),
  ('CCCC(Oc1cccc(C#N)c1)c1nc2cc(Cl)ccc2o1 (stereo not drawn)', 'Effects Corn', 1),
  ('CCCC(Oc1ccc(F)c(C(F)(F)F)c1)c1nc2cc(C#N)c(Cl)cc2o1 (stereo not drawn)', 'Effects Corn', 2),
  ('CCC(Oc1cccc(C(F)(F)F)c1)c1nc2cc(F)ccc2o1 (stereo not drawn)', 'Effects Corn', 3),
  ('CCC(Oc1cccc(C(F)(F)F)c1)c1nc2cc(F)c(Cl)cc2o1 (stereo not drawn)', 'Effects Corn', 2);

---

system: corn; experiment: Soil treatment test for upland field; assay type: in vivo; parameters: key: 0: normal development; 1: Less damaged; 2: Slightly damaged; 3: Moderately damaged; 4: Severely damaged; 5: All killed; conditions: 500 g/ha, glass house 25° C., 3 weeks
Measured Effects Corn, listed per entry for reference.
Reported metric: Effects Corn

INSERT INTO measurements (compound, reading) VALUES
  ('CCC(Oc1cccc(OC(F)(F)F)c1)c1nc2cc([N+](=O)[O-])ccc2o1 (stereo not drawn) [Compound 450]', 2),
  ('CCCCC(Oc1ccc(F)c(C(F)(F)F)c1)c1nc2cc(Cl)ccc2o1 (stereo not drawn) [Compound 476]', 0),
  ('CCCC(Oc1ccc(F)c(C(F)(F)F)c1)c1nc2cc(C(F)(F)F)ccc2o1 (stereo not drawn) [Compound 199]', 1),
  ('CCC(Oc1ccc(Cl)c(C(F)(F)F)c1)c1nc2cc([N+](=O)[O-])ccc2o1 (stereo not drawn) [Compound 432]', 0),
  ('CCC(Oc1cccc(C#N)c1)c1nc2cc(C#N)ccc2o1 (stereo not drawn) [Compound 392]', 1),
  ('CCC(Oc1ccc(F)c(C(F)(F)F)c1)c1nc2cc(I)ccc2o1 (stereo not drawn) [Compound 171]', 0),
  ('CCC(Oc1cccc(C#N)c1)c1nc2cc(Cl)c(C)cc2o1 (stereo not drawn) [Compound 481]', 0),
  ('CCCC(Oc1cccc(C(F)(F)F)c1)c1nc2cc(C#N)c(Cl)cc2o1 (stereo not drawn) [Compound 532]', 1),
  ('CCCC(Oc1ccc(F)c(C(F)(F)F)c1)c1nc2cc(C#N)c(Cl)cc2o1 (stereo not drawn) [Compound 533]', 0),
  ('CCC(Oc1cccc(C(F)(F)F)c1)c1nc2ccc(Cl)cc2o1 (stereo not drawn) [Compound 10]', 0),
  ('CCC(Oc1cccc(C(F)(F)F)c1)c1nc2cc(F)c(Cl)cc2o1 (stereo not drawn) [Compound 496]', 0),
  ('CCCC(Oc1cccc(C(F)(F)F)c1)c1nc2cc(F)c(Cl)cc2o1 (stereo not drawn) [Compound 497]', 1),
  ('CCC(Oc1cccc(C(F)(F)F)c1)c1nc2cc(F)ccc2o1 (stereo not drawn) [Compound 120]', 0),
  ('CCCC(Oc1cccc(C#N)c1)c1nc2cc(S(C)(=O)=O)ccc2o1 (stereo not drawn) [Compound 508]', 0),
  ('CC(Oc1ccc(F)c(C(F)(F)F)c1)c1nc2cc(Cl)ccc2o1 (stereo not drawn) [Compound 137]', 1),
  ('CCC(Oc1cccc(OC(F)(F)F)c1)c1nc2cc(Cl)ccc2o1 (stereo not drawn) [Compound 447]', 2),
  ('CCCC(Oc1cccc(C(F)(F)F)c1)c1nc2cc(C(F)(F)F)ccc2o1 (stereo not drawn) [Compound 200]', 1),
  ('CCC(Oc1cccc(C(F)(F)F)c1)c1nc2cc(Cl)ccc2o1 (stereo not drawn) [Compound 140]', 0),
  ('CCC(Oc1cccc(C(F)(F)F)c1)c1nc2ccc(C(F)(F)F)cc2o1 (stereo not drawn) [Compound 94]', 0),
  ('CCCC(Oc1ccc(F)c(C(F)(F)F)c1)c1nc2cc(S(C)(=O)=O)ccc2o1 (stereo not drawn) [Compound 217]', 0),
  ('CCC(Oc1cccc(C#N)c1)c1nc2cc(S(C)(=O)=O)ccc2o1 (stereo not drawn) [Compound 507]', 0),
  ('CCC(Oc1ccc(F)c(C(F)(F)F)c1)c1nc2cc(C(F)(F)F)ccc2o1 (stereo not drawn) [Compound 197]', 2),
  ('CCCC(Oc1cccc(C#N)c1)c1nc2cc(Cl)c(C)cc2o1 (stereo not drawn) [Compound 484]', 1),
  ('CCCC(Oc1ccc(F)c(C(F)(F)F)c1)c1nc2ccc(C(F)(F)F)cc2o1 (stereo not drawn) [Compound 101]', 0);
